system: SK-MEL-28 melanoma; experiment: NCI tumour cell line growth inhibition, 48 h
MEASURED PROPERTY: TGI (µM)
One number for each entry, in µM.

COMPOUND	TGI (µM)
CCOC(=O)c1c(CN2CCNCC2)nc2ccccc2c1-c1ccccc1	25.1
COc1ccccc1/C=C1\CCC(CCN(C)C)(C2=CCCC2)C1=O (centres undefined)	32.7

# ---- query compound ----
Supply TGI value. Item: O=C(Nc1ccc(Cl)cc1Cl)C(=O)C(C(=O)c1ccc2ccccc2c1)C1OC(=O)c2ccccc21 (centres undefined)
15.3

---

Kindly state TGI for each of the entries shown.
test system: SNB-75 CNS; experiment: NCI tumour cell line growth inhibition, 48 h
Numbers only, in µM.

COMPOUND	MEASURED PROPERTY	VALUE MEASURED
CN(C)CCNC(=O)c1ccc(NCCCN(C)CCCNc2ccc3c(=O)n(CCN(C)C)c(=O)n4c5ccccc5c(=O)c2c34)c2c(=O)c3ccccc3[nH]c12	TGI	0.0449

Each of the following entries comes with a recorded value; kindly state TGI for each.
1. Cc1ccc(C(C)(C)C[P+](C)(c2ccccc2)c2ccccc2)cc1
2. COc1cc(/C=C/C(=O)c2c(=O)o[nH][n+]2-c2ccccc2)ccc1[O-]
3. CCc1n(Cc2ccc3ccccc3n2)cc[n+]1Cc1ccc2ccccc2n1

1. 50.8
2. 8.7
3. 2.4

---

Kindly state TGI for each of the entries shown.
test system: SN12C renal; test: NCI tumour cell line growth inhibition, 48 h

Below are worked cases with known answers.
COMPOUND	TGI
CCCn1c(SC)nc(COC(=O)NC)c1COC(=O)NC	> 100 µM
Cc1ccc(-c2cc(-c3ccco3)c(C#N)c(=O)[nH]2)cc1	> 100 µM
Cc1cccc2c1[nH]c1[nH]c(=O)[nH]c(=O)c12	> 100 µM
CC1CC#CCOC(=O)CCCC1=O (stereo not drawn)	> 100 µM
Cc1ccc(S(=O)(=O)NCCNC2=CC(=O)c3nc4ccccc4c4ccnc2c34)cc1	39.6 µM
CCO/C=C/C(C)C1(C(=O)OCC)CCCCC1=O (stereo not drawn)	> 100 µM

Each of the following entries comes with a recorded value; kindly state TGI for each.
1. Nc1nc2c(c(=O)[nH]1)NC(CO)CN2 (stereo not drawn)
2. CCc1c(Cc2cccc3ccccc23)n2c(nc1=O)SCC2OCCO (stereo not drawn)
3. Cc1ccc(/C(=N\N=C(N)N)c2ccccc2)cc1
4. Cc1ccc(C(=O)O)c(CC2Cc3c(C)cccc3C2=O)c1 (stereo not drawn)

["> 100 µM", "> 100 µM", "13.4 µM", "> 100 µM"]

Each of the following entries comes with a recorded value; kindly state TGI for each.
1. O=C(CSCC(=O)N/N=C/c1cccs1)N/N=C/c1cccs1
2. NCCCOCC(=O)O

1: > 100 µM; 2: > 100 µM

Each of the following entries comes with a recorded value; kindly state TGI for each.
1. O=C(Nc1ccc(F)cc1)c1ccc(NC2=C(Cl)C(=O)N(Cc3ccccc3)C2=O)cc1
2. COc1ccc(-c2cc(=O)c3c(C)cc(C)nc3[nH]2)cc1

["16.4 µM", "> 100 µM"]

Each of the following entries comes with a recorded value; kindly state TGI for each.
1. Cc1cc(C)c(P2C(=C(O[Si](C(C)C)(C(C)C)C(C)C)C(C)(C)C)C2(c2ccccc2)c2ccccc2)c(C)c1 (stereo not drawn)
2. CCOC(=O)c1c(N2CCCC2)ncn(-c2ccccc2)c1=S
3. COc1ccc(Nc2ncc(Br)c(NCCCNC(=O)C3CCC3)n2)cc1
4. N#CC(C#N)=C1C(C#N)=C(N)NC12OCCO2
5. N=C1N(S(=O)(=O)c2ccccc2)[C@@H](Cc2ccccc2)[C@H](c2ccccc2)C1(c1ccccc1)c1ccccc1
6. C(=C\c1cccc(/C=C/c2ccccn2)n1)/c1ccccn1
7. N=c1oc2ccc3ccccc3c2cc1C(N)=O
8. O=C(Nc1ccc(Cl)cc1Cl)C(=O)C(C(=O)c1ccc2ccccc2c1)C1OC(=O)c2ccccc21 (stereo not drawn)

1: > 100 µM; 2: > 100 µM; 3: 62.7 µM; 4: > 100 µM; 5: > 100 µM; 6: > 100 µM; 7: > 100 µM; 8: 30.7 µM

# return TGI for COc1cc(/C=C\c2ccccc2)cc(OC)c1OC , test system: SN12C renal
48.6 µM
